src = the Human Domainome abundance scans (Beltran et al. 2025)

B1: Formin-binding protein 4, residues 593 to 636; numbered along this chain, Q8N3X1 (parent)
chain: EINATPKGWSCHWDRDHRRYFYVNEQSGESQWEFPDGEEEEEES

- Variants of: B1
- Assay name: abundance fitness (aPCA) (normalised: wild type 0, dead -1); higher = more abundant; growth selection in yeast, the domain comes from the species named
- Condition details: Homo sapiens

# Sequence content, abundance fitness
data = [
    ("EINATPKGWSCHWDNDHRRYFYVNEQSGESQWEFPDGEEEEEES [R15N]", -0.05),
    ("EINATPKGWSCEWDRDHRRYFYVNEQSGESQWEFPDGEEEEEES [H12E]", -0.049),
    ("EINATPKIWSCHWDRDHRRYFYVNEQSGESQWEFPDGEEEEEES [G8I]", -0.496),
    ("EINATPKGWSGHWDRDHRRYFYVNEQSGESQWEFPDGEEEEEES [C11G]", 0.037),
    ("EINATPKGWSCHWDRDHRRYFYVNEQSGESQWEFPTGEEEEEES [D36T]", -0.137),
    ("EINATPKGWSCHWDRDHRRYFYVNEQSGESQWEFPDGEEEEVES [E42V]", -0.005),
    ("EINATPKGWSCHWDRDHRRYFYVNEQKGESQWEFPDGEEEEEES [S27K]", -0.485),
    ("EINVTPKGWSCHWDRDHRRYFYVNEQSGESQWEFPDGEEEEEES [A4V]", -0.132),
    ("EINATPKGWSCHWFRDHRRYFYVNEQSGESQWEFPDGEEEEEES [D14F]", -0.75),
    ("EINATPKGWSCHWDRDHRRYFYVNETSGESQWEFPDGEEEEEES [Q26T]", -0.104),
    ("EINATPKGVSCHWDRDHRRYFYVNEQSGESQWEFPDGEEEEEES [W9V]", -0.629),
    ("EINAMPKGWSCHWDRDHRRYFYVNEQSGESQWEFPDGEEEEEES [T5M]", -0.054),
    ("EINATPKGWSCHWDWDHRRYFYVNEQSGESQWEFPDGEEEEEES [R15W]", -0.315),
    ("EINATPKGWSCHWDRDHRRYFYFNEQSGESQWEFPDGEEEEEES [V23F]", -0.367),
    ("EINATPKGWSCHWDRHHRRYFYVNEQSGESQWEFPDGEEEEEES [D16H]", -0.168),
    ("EINATPKGWSCHWDRDHRRYRYVNEQSGESQWEFPDGEEEEEES [F21R]", 0.187),
    ("EINATPKGWSCHWDRDHRRYFYVNEQSGESQWEFPPGEEEEEES [D36P]", -0.025),
    ("EINATPKGWSCHWDRDHRRYFYVNEQSGESQWEFPDDEEEEEES [G37D]", -0.266),
    ("EINATPKKWSCHWDRDHRRYFYVNEQSGESQWEFPDGEEEEEES [G8K]", -0.408),
    ("EINATPKGWSCHMDRDHRRYFYVNEQSGESQWEFPDGEEEEEES [W13M]", -0.542),
    ("EINATPKGWSCHWDRDHRRYFYVNELSGESQWEFPDGEEEEEES [Q26L]", -0.137),
    ("EINATPKGWSCHWDRDLRRYFYVNEQSGESQWEFPDGEEEEEES [H17L]", 0.007),
]
